# Test system: P388
# method description: Antiproliferative activity against mouse P388 cells at 0.1 ug after 48 hrs by two-layer agar-diffusion method
# Assay type: functional
# cond: read-out: IZ
reported metric: zone of inhibition at 0.1 µg/disc (mm)

>>> reported_value("COc1cc2c(c(OC)c1OC)-c1ccc(OC)c(=O)cc1[C@@H](NC(C)=O)CC2")
40
>>> reported_value("CO[C@@]12[C@H](COC(N)=O)C3=C(C(=O)C(C)=C(N)C3=O)N1C[C@@H]1N[C@@H]12")
5
>>> reported_value("Nc1ncn([C@@H]2O[C@H](CO)[C@@H](O)[C@H]2O)c(=O)n1")
12.5
>>> reported_value("Nc1ccn([C@@H]2O[C@H](CO)[C@@H](O)[C@@H]2O)c(=O)n1")
20
>>> reported_value("O=c1[nH]cc(F)c(=O)[nH]1")
15
>>> reported_value("CC[C@H]1CN2CCc3cc(OC)c(OC)cc3[C@@H]2C[C@@H]1C[C@H]1NCCc2cc(OC)c(OC)cc21")
40
>>> reported_value("COc1cccc2c1C(=O)c1c(O)c3c(c(O)c1C2=O)C[C@@](O)(C(C)=O)C[C@@H]3O[C@H]1C[C@H](N)[C@H](O)[C@H](C)O1")
12.5

* * *

# Tested on: P388
# method description: Antiproliferative activity against mouse P388 cells at 0.1 ug after 48 hrs by two-layer agar-diffusion method
# Assay type: functional
# cond: read-out: IZ
Parameter zone of inhibition at 0.1 µg/disc: see the listing below.
reported metric: zone of inhibition at 0.1 µg/disc

>>> reported_value("COc1cc(NS(C)(=O)=O)ccc1Nc1c2ccccc2nc2ccccc12 [AMSACRINE]")
"10 mm"
>>> reported_value("CC[C@]1(O)C[C@H]2CN(CCc3c([nH]c4ccccc34)[C@@](C(=O)OC)(c3cc4c(cc3OC)N(C=O)[C@H]3[C@@](O)(C(=O)OC)[C@H](OC(C)=O)[C@]5(CC)C=CCN6CC[C@]43[C@@H]65)C2)C1 [VINCRISTINE]")
"32.5 mm"
>>> reported_value("CO[C@H](C(=O)[C@@H](O)[C@@H](C)O)[C@@H]1Cc2cc3cc(O[C@H]4C[C@@H](O[C@@H]5C[C@@H](O)[C@H](O)[C@@H](C)O5)[C@H](O)[C@@H](C)O4)c(C)c(O)c3c(O)c2C(=O)[C@H]1O[C@H]1C[C@@H](O[C@@H]2C[C@@H](O)[C@@H](O[C@@H]3C[C@](C)(O)[C@H](O)[C@@H](C)O3)[C@@H](C)O2)[C@H](O)[C@@H](C)O1 [PLICAMYCIN]")
"15 mm"
>>> reported_value("COc1cccc2c1C(=O)c1c(O)c3c(c(O)c1C2=O)C[C@@](O)(C(=O)CO)C[C@@H]3O[C@H]1C[C@H](N)[C@H](O)[C@H](C)O1 [DOXORUBICIN]")
"17.5 mm"

Sourced from ChEMBL document CHEMBL1147285
